Overview of recorded cytotoxicity at 70.5 h for various molecules
assay_explanation: Human HepG2 cell viability assay in 384 well format
Type: toxicity, cell-based
Design: dose 125 nL, time 70.5 hour; concentration not given beside the values
condition_info: HepG2 cells, read-out: Inhibition
recorded_endpoint: cytotoxicity at 70.5 h (%)

molecule: Cn1cc(C2(C)CN(C(=O)Nc3ccccc3F)CCO2)cn1 (stereo unspecified)
recorded_endpoint: cytotoxicity at 70.5 h
numeric_readout: -5.13
//
molecule: O=C(CO)N1C[C@H]2CN(Cc3cccc(F)c3)C(=O)[C@H]2C1
recorded_endpoint: cytotoxicity at 70.5 h
numeric_readout: -5.34
//
molecule: COc1cc(C(=O)N2CCC(c3n[nH]c(C)n3)CC2)cc(OC)c1C
recorded_endpoint: cytotoxicity at 70.5 h
numeric_readout: -3.07
//
molecule: Cc1cccnc1NCCNC(=O)c1cnc(-c2cccs2)nc1O
recorded_endpoint: cytotoxicity at 70.5 h
numeric_readout: -0.575
//
molecule: CSCc1cccc(S(=O)(=O)NCCCn2ccnc2)c1
recorded_endpoint: cytotoxicity at 70.5 h
numeric_readout: -5.18
//
molecule: O=C(NCCNc1cnccn1)N1CCN(c2nccs2)CC1
recorded_endpoint: cytotoxicity at 70.5 h
numeric_readout: -8.94

====

assay_explanation: Human HepG2 cell viability assay in 384 well format
Format: toxicity, cell-based
Design: dose 125 nL, time 70.5 hour; concentration not given beside the values
condition_info: HepG2 cells, read-out: Inhibition
Overview of recorded cytotoxicity at 70.5 h for various compounds

compound: O=C(COc1ccccc1F)NCCC(O)c1ccco1 (configuration not stated)
unit_abbrev: %
cytotoxicity at 70.5 h: -3.87
//
compound: O=c1[nH]c(-c2ccc(F)c(F)c2)nc2c1CCNC2
unit_abbrev: %
cytotoxicity at 70.5 h: -1.92
//
compound: CCCN1CCN(C(=O)c2cnc(C)nc2)[C@H]2CS(=O)(=O)C[C@H]21
unit_abbrev: %
cytotoxicity at 70.5 h: -0.0232
//
compound: Cc1cnn(CC2CCCCN2C(=O)c2ccc3nncn3c2)c1 (configuration not stated)
unit_abbrev: %
cytotoxicity at 70.5 h: -3.43
//
compound: Cc1ccc(CN2C[C@@H](OCc3ccccn3)[C@H]3COC[C@H]32)o1
unit_abbrev: %
cytotoxicity at 70.5 h: -5
//
compound: CN1CCN(C(=O)c2cc[nH]c(=O)c2)Cc2ccccc21
unit_abbrev: %
cytotoxicity at 70.5 h: 1.93
//
compound: O=C1CCCN1Cc1ncn2c1CN(C(=O)NC1CCCC1)CCC2
unit_abbrev: %
cytotoxicity at 70.5 h: 5.73
//
compound: COc1cccc(F)c1CN1CCC(c2nccc(C)n2)C1 (configuration not stated)
unit_abbrev: %
cytotoxicity at 70.5 h: -9.63
//
compound: Cc1cccnc1CN(C)c1ncnc2[nH]ccc12
unit_abbrev: %
cytotoxicity at 70.5 h: -6.05
//
compound: c1cncc(OCc2n[nH]c3c2CN(Cc2cccs2)C3)c1
unit_abbrev: %
cytotoxicity at 70.5 h: -6.87
//
compound: Cc1cc(=O)c(C(=O)N2CCCCC2c2ccc(F)cc2)c[nH]1 (configuration not stated)
unit_abbrev: %
cytotoxicity at 70.5 h: -4.63
//
compound: CC(C)(C)OC(=O)N1CCC(NCc2cnn(C(C)(C)C)c2)CC1
unit_abbrev: %
cytotoxicity at 70.5 h: -2.5
//
compound: CSCCc1n[nH]c2c1CN(S(=O)(=O)c1cn(C)c(C)n1)CC2
unit_abbrev: %
cytotoxicity at 70.5 h: -4.85
//
compound: COC(=O)C1CCN(C(=O)c2nnc3ccc(C)cc3n2)CC1
unit_abbrev: %
cytotoxicity at 70.5 h: -6.57
//
compound: CC(=O)c1cc(Br)cc(F)c1OCC(=O)NC(C)C
unit_abbrev: %
cytotoxicity at 70.5 h: -4.15
//
compound: O=C(NCC1CCCO1)c1csc(Cc2ccccc2)n1 (configuration not stated)
unit_abbrev: %
cytotoxicity at 70.5 h: 50.7
//
compound: COCC(O)CN(C)c1ccnc2ccc(Cl)cc12 (configuration not stated)
unit_abbrev: %
cytotoxicity at 70.5 h: 13.9
//
compound: CC[C@H](C)[C@H](N)C(=O)Nc1nc(-c2cnc(N(C)C)nc2)cs1
unit_abbrev: %
cytotoxicity at 70.5 h: -0.629
//
compound: CN(C)C(=O)c1nnc2ccc(N3CCOCC3)cc2n1
unit_abbrev: %
cytotoxicity at 70.5 h: -2.48
//
compound: Cc1nc(CN2C(=O)CC[C@@H]3[C@H]2CCN3C(=O)c2ccccn2)cs1
unit_abbrev: %
cytotoxicity at 70.5 h: -4.48
//
compound: CC(c1cccc(-c2ncccc2C#N)c1)N(C)C (configuration not stated)
unit_abbrev: %
cytotoxicity at 70.5 h: -15.1
//
compound: CC(C)NC(=O)Nc1ccc2c(c1)ncn2CC(=O)NCCN(C)C
unit_abbrev: %
cytotoxicity at 70.5 h: -12.7
//
compound: Cn1cc(CCC(=O)NS(=O)(=O)N2CCCc3ccccc32)cn1
unit_abbrev: %
cytotoxicity at 70.5 h: -8.12
//
compound: CC(=O)N1CCC(NC(=O)N2CCCC2c2ccsc2)CC1 (configuration not stated)
unit_abbrev: %
cytotoxicity at 70.5 h: 6.84
//
compound: COc1c(CNC(c2cccc(F)c2)c2nccn2C)c(C)nn1C (configuration not stated)
unit_abbrev: %
cytotoxicity at 70.5 h: 19
//
compound: Cc1cc(N2CCCCCC2)n2nc(C)c(C)c2n1
unit_abbrev: %
cytotoxicity at 70.5 h: -4.52
//
compound: Cc1ccc(CNC(=O)Cn2ncc3c2c(C)nn3C)cc1
unit_abbrev: %
cytotoxicity at 70.5 h: -0.794
//
compound: CNC(=O)CS(=O)(=O)C1CCN(S(=O)(=O)c2c(F)cccc2F)CC1
unit_abbrev: %
cytotoxicity at 70.5 h: -7.9
//
compound: O=C(Nc1ccc2c(c1)OCCO2)c1ccc(=O)[nH]n1
unit_abbrev: %
cytotoxicity at 70.5 h: 15.5
//
compound: Cc1noc(C)c1CCN1CCCC1c1nc2cc(F)ccc2[nH]1 (configuration not stated)
unit_abbrev: %
cytotoxicity at 70.5 h: -5.52
//
compound: CCc1nc(C2CCCN2CCS(=O)(=O)c2ccccc2)no1 (configuration not stated)
unit_abbrev: %
cytotoxicity at 70.5 h: -1.81
//
compound: O=C(C1CCN(c2snc3ccccc23)CC1)N1CCCCCC1
unit_abbrev: %
cytotoxicity at 70.5 h: 28.1
//
compound: Cl.Clc1cccc(N[C@H]2CCCN[C@H]2Cc2ccccc2)c1
unit_abbrev: %
cytotoxicity at 70.5 h: 104
//
compound: COCCN1Cc2ccccc2C2(CCN(C(=O)c3ccco3)CC2)C1
unit_abbrev: %
cytotoxicity at 70.5 h: 1.21
//
compound: O=C(c1ccc(C(F)(F)F)nc1)N1CCCC(n2cncn2)C1 (configuration not stated)
unit_abbrev: %
cytotoxicity at 70.5 h: -1.03
//
compound: O=C(N1CCCC1)N1Cc2nccn2CC(CN2CCCC2)C1 (configuration not stated)
unit_abbrev: %
cytotoxicity at 70.5 h: -8.56
//
compound: Cc1n[nH]c(C)c1CCCN(C)c1cc(N(C)C)ncn1
unit_abbrev: %
cytotoxicity at 70.5 h: 6.66
//
compound: CC(C)c1cn(CC(=O)NC2CC(=O)N(CCc3ccccc3)C2)nn1 (configuration not stated)
unit_abbrev: %
cytotoxicity at 70.5 h: -3.95
//
compound: CCOC(=O)C1CN(CC2CC2)Cc2ncn(CC)c21 (configuration not stated)
unit_abbrev: %
cytotoxicity at 70.5 h: -2.34
//
compound: O=C(c1ccncc1)N1CCC(c2nc(O)cc(-c3cccnc3)n2)C1 (configuration not stated)
unit_abbrev: %
cytotoxicity at 70.5 h: -17.2
//
compound: COc1ccc(N2CCN(C(=O)COc3c(C)occc3=O)CC2)cc1
unit_abbrev: %
cytotoxicity at 70.5 h: 2.1
//
compound: CN(C)c1nccc(C2CN(c3cnccn3)CCO2)n1 (configuration not stated)
unit_abbrev: %
cytotoxicity at 70.5 h: 13.3
//
compound: CC(C)CN1CC[C@@H]2[C@@H]1CCN2C(=O)N1CCCC1
unit_abbrev: %
cytotoxicity at 70.5 h: -3.86
//
compound: NC(Cc1nc(-c2ccccc2)no1)c1ccccc1 (configuration not stated)
unit_abbrev: %
cytotoxicity at 70.5 h: -6.63
//
compound: CCOC(=O)COc1ccc(C(C)=O)c(O)c1
unit_abbrev: %
cytotoxicity at 70.5 h: 28.9
//
compound: CC(COc1ccccc1F)NC(=O)N[C@@H]1C=C[C@H](CO)C1 (some centres not stated)
unit_abbrev: %
cytotoxicity at 70.5 h: -7.04
//
compound: CCCS(=O)(=O)N1CCO[C@H]2[C@H](OCc3ccccn3)CC[C@@H]21
unit_abbrev: %
cytotoxicity at 70.5 h: -1.48
